biological target: B. subtilis RNAP (Bacillus subtilis, UniProt P37870+P37871); construct: endogenous in cells; host or cells: Bacillus subtilis strain PL37 (built from strain 168); assay: Dual reporter assay in strain PL37: test reporter Pxyl-lacZ and ratio of control to test reporter (RES:MUG); format: cell-based; conditions: strain PL37; Dilution Number 8; DMSO control […]
Sequence (P37871 whole entry): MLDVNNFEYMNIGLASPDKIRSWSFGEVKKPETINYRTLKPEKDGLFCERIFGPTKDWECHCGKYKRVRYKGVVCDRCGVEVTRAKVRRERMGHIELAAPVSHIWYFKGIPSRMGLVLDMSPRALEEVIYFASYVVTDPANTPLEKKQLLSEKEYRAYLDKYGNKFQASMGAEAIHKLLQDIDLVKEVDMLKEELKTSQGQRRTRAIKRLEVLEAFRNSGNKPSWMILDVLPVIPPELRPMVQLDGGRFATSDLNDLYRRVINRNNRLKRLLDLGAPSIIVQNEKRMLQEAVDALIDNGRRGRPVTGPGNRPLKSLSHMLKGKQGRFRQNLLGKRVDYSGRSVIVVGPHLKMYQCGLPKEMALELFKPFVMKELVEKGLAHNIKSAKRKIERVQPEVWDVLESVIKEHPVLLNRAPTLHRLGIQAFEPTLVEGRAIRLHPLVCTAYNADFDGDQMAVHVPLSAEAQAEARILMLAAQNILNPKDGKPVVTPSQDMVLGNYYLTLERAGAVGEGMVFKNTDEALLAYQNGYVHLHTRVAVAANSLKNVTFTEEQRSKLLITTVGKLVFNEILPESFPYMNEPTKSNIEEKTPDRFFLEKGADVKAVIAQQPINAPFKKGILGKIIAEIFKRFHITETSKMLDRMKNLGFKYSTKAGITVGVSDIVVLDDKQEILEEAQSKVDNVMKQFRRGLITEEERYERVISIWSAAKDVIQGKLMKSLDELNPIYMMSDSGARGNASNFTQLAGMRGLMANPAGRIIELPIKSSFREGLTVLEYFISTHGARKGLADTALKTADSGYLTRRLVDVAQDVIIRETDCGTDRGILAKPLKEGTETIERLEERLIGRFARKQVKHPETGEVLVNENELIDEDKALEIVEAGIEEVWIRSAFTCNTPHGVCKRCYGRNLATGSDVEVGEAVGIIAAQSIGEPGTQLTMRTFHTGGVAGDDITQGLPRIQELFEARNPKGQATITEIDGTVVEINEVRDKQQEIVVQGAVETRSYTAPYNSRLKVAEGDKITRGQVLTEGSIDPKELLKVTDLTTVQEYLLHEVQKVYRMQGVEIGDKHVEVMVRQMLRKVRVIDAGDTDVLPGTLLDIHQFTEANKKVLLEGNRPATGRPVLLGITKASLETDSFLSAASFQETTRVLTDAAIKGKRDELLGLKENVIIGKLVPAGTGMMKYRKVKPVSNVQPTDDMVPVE
Sequence (P20429 whole entry, further chain): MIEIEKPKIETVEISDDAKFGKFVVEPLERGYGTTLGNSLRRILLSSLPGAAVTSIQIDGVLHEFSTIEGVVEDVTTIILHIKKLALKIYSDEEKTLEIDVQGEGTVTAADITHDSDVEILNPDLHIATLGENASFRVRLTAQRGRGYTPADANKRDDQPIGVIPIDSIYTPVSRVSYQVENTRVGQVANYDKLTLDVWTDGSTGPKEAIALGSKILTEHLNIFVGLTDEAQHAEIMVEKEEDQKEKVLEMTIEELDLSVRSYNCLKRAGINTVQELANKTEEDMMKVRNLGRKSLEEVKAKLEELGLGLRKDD
Sequence (O35011 whole entry, further chain): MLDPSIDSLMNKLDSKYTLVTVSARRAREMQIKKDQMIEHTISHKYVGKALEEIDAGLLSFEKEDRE
Sequence (P37870 whole entry): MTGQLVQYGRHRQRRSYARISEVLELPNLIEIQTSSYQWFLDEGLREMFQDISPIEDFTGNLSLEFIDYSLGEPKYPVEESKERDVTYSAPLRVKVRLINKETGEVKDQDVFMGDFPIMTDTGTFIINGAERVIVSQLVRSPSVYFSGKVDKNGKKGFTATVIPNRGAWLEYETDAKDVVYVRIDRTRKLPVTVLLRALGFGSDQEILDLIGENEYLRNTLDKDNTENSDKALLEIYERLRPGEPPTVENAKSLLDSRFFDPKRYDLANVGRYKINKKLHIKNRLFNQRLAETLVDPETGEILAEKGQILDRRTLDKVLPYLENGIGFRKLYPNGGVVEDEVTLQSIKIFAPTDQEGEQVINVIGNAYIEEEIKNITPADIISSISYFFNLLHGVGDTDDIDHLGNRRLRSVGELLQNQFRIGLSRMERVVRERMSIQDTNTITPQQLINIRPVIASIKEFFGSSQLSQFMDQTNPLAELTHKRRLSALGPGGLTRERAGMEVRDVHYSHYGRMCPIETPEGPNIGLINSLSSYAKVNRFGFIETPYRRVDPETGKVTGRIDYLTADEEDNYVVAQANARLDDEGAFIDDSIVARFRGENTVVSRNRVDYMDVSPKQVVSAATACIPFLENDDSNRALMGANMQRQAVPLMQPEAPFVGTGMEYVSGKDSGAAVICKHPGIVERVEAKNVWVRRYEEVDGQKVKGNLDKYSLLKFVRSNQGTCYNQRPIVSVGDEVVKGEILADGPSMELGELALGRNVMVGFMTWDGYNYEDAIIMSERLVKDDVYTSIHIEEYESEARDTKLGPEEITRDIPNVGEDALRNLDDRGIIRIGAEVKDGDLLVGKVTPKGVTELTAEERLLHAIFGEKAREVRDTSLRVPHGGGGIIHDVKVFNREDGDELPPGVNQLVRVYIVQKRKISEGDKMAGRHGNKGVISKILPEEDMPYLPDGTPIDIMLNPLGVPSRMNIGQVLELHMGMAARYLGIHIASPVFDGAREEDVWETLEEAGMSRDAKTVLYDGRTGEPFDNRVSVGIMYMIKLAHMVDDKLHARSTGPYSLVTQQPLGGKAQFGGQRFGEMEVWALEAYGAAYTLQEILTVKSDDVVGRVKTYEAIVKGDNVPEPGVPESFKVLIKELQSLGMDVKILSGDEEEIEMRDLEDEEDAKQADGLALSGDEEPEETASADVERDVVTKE
Positions of bridges follow the written chain, without caps; N, C: chain ends. Non-standard residues stand in square brackets, D forms with d. Residues, ends and D or L forms follow the SMILES beside them. *: point of attachment. Ileψ(thiazoline)Cys = CC[C@H](C)[C@H](N)C1=N[C@H](C(=O)*)CS1; dOrn = NCCC[C@@H](N)C(=O)O
readout_kind: Ratio of the control reporter (RES): test reporter (MUG)
Answers are plain numbers.

Completed entries (count: 3):
compound | meas_value
CC1(C)S[C@@H]2[C@H](NC(=O)C(C(=O)O)c3ccccc3)C(=O)N2[C@H]1C(=O)O (some centres unmarked) | 1.03
CCC[C@@H]1C[C@@H](C(=O)N[C@@H]([C@H]2O[C@H](SC)[C@H](O)[C@@H](O)[C@H]2O)[C@@H](C)O)N(C)C1 | 0.99
CC[C@H](C)[C@H](N)C1=N[C@H](C(=O)N[C@@H](CC(C)C)C(=O)N[C@H](CCC(=O)O)C(=O)N[C@H](C(=O)N[C@H]2CCCCNC(=O)[C@H](CC(N)=O)NC(=O)[C@@H](CC(=O)O)NC(=O)[C@H](Cc3cnc[nH]3)NC(=O)[C@@H](Cc3ccccc3)NC(=O)[C@H]([C@@H](C)CC)NC(=O)[C@@H](CCCN)NC2=O)[C@@H](C)CC)CS1 [Bacitracin] ({Ileψ(thiazoline)Cys}-L[dE]IK[dOrn]I[dF]H[dD]N; lactam 4-C) | 1.09

I'm hoping you can list Ratio of the control reporter (RES): test reporter (MUG) for every compound here, please.
1. O=C(N[C@H](CO)[C@H](O)c1ccc([N+](=O)[O-])cc1)C(Cl)Cl
2. CO[C@@H]1[C@@H](OC(N)=O)[C@@H](O)[C@H](Oc2ccc3c(O)c(NC(=O)c4ccc(O)c(CC=C(C)C)c4)c(=O)oc3c2C)OC1(C)C

[out]
1: 1.16; 2: 1.05

src = patent US20040072206A1
